# Lookup of reported pIC50 keyed by entry
target: Isocitrate dehydrogenase [NADP] cytoplasmic (Homo sapiens, UniProt O75874, R132C); experiment: Inhibition of recombinant human C-terminal His8-tagged IDH1 R132C mutant expressed in Escherichia coli BL21 assessed as reduction in NADPH consumption using alpha-ketoglutarate as substrate preincubated for 60 mins followed by substrate addition and measured for 60 mins in presence of NADPH by diaphorase/resazurin-based fluorescence assay
Sequence (O75874 2-414 R132C limits assumed): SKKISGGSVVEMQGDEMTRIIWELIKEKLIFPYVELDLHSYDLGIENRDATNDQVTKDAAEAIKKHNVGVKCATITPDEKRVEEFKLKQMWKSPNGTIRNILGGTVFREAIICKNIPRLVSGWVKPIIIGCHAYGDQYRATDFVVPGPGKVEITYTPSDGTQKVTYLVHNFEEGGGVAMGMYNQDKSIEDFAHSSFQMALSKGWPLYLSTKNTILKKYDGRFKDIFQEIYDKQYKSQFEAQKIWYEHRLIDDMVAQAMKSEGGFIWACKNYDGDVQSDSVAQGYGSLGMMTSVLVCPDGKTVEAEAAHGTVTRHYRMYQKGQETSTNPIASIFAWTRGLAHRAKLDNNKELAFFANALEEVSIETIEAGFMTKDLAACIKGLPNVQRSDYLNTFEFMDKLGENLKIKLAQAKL
pIC50 (log units): -log10 of the concentration in mol/L.

# example entries with known answers
molecule: CC(C)[C@H]1C(C)OC(=O)N1c1ccnc(N[C@@H](C)c2ncn3c2CCc2cc(C(F)(F)F)ccc2-3)n1 (stereo partly specified)
endpoint_value: 7.82

molecule: C[C@H](Nc1nccc(N2C(=O)OC[C@@H]2c2ccccc2)n1)c1ncn2c1CCc1cc(C(F)(F)F)ccc1-2
endpoint_value: 7.85

Enquiry: Dear colleague, please send me the reported pIC50 for C[C@H](Nc1nccc(N2C(=O)OC[C@@H]2[C@H](C)F)n1)c1ncn2c1sc1cc(C(F)(F)F)ccc12 when you can.
Return: 7.76

Enquiry: Dear colleague, please send me the reported pIC50 for C[C@H](Nc1nccc(N2C(=O)OC3(COC3)[C@@H]2c2ccccc2)n1)c1ncn2c1CCc1cc(C(F)(F)F)ccc1-2 when you can.
Return: 8.01

Enquiry: Dear colleague, please send me the reported pIC50 for C[C@H](Nc1nccc(N2C(=O)OC[C@@H]2[C@H](C)F)n1)c1ncn2c1CCc1cc(F)ccc1-2 when you can.
Return: 7.35

* * *

test: Half life in ICR mouse at 1 mg/kg, iv measured upto 24 hrs by LCMS analysis; format: ADME, organism-based; conditions: in vivo
Outcome: Satisfied for half-life of at least 1 h; Not satisfied for anything lower.

smiles_repr: C[C@H](Nc1nccc(N2C(=O)OC[C@@H]2[C@H](C)F)n1)c1ncn2c1CCc1cc(C(F)(F)F)ccc1-2
category_label: Satisfied
//
smiles_repr: C[C@H](Nc1ncc(F)c(N2C(=O)OC[C@@H]2[C@H](C)F)n1)c1ncn2c1CCc1cc(C(F)(F)F)ccc1-2
category_label: Satisfied
//
smiles_repr: C[C@H](Nc1nccc(N2C(=O)OC[C@@H]2[C@H](C)F)n1)c1ncn2c1CCc1cc(Cl)ccc1-2
category_label: Satisfied

Enquiry: Say whether C[C@H](Nc1nccc(N2C(=O)OC[C@@H]2[C@H](C)F)n1)c1ncn2c1COc1cc(C(F)(F)F)ccc1-2 shows half-life of 1 h or more.
Return: Satisfied

Enquiry: Say whether N#Cc1ccnc(N2C(=O)CC[C@H]2C(=O)N(c2cncc(F)c2)[C@H](C(=O)NC2CC(F)(F)C2)c2ccccc2Cl)c1 shows half-life of 1 h or more.
Return: Satisfied

Enquiry: Say whether CC(C)[C@H]1COC(=O)N1c1ccnc(N[C@@H](C)c2ncn3c2CCc2cc(C(F)(F)F)ccc2-3)n1 shows half-life of 1 h or more.
Return: Not satisfied

* * *

assay: Oral bioavailability in ICR mouse at 5 mg/kg measured upto 24 hrs by LCMS analysis; assay type: ADME, organism-based; settings: ICR, in vivo
readout_label: bioavailability (%)
Dear colleague, please return just the value in %, with no unit written.

smiles_repr: C[C@H](Nc1nccc(N2C(=O)OC[C@@H]2[C@H](C)F)n1)c1ncn2c1CCc1cc(Cl)ccc1-2
endpoint_value: 117

Enquiry: Dear colleague, please send me the reported bioavailability for N#Cc1ccnc(N2C(=O)CC[C@H]2C(=O)N(c2cncc(F)c2)[C@H](C(=O)NC2CC(F)(F)C2)c2ccccc2Cl)c1 when you can.
Return: 80

Enquiry: Dear colleague, please send me the reported bioavailability for C[C@H](Nc1nccc(N2C(=O)OC[C@@H]2[C@H](C)F)n1)c1ncn2c1COc1cc(Cl)ccc1-2 when you can.
Return: 109

Enquiry: Dear colleague, please send me the reported bioavailability for C[C@H](Nc1nccc(N2C(=O)OC[C@@H]2[C@H](C)F)n1)c1ncn2c1CCc1cc(C(F)(F)F)ccc1-2 when you can.
Return: 150

Enquiry: Dear colleague, please send me the reported bioavailability for CC(C)[C@H]1COC(=O)N1c1ccnc(N[C@@H](C)c2ncn3c2CCc2cc(C(F)(F)F)ccc2-3)n1 when you can.
Return: 109
